Would you mind telling me the reported mortality at 1250 ppm of each entry?
System: Two-spotted spider mite
Assay: Residual (7-day) contact activity, two-spotted spider mite
Format: in vivo, Tetranychus urticae Koch
Details: Tetranychus urticae, 168 h, residual 7-day, SM, 1250 PPM; read-out: Percent Kill
Give your result in % as a bare value.

Two-spotted spider mite / mortality at 1250 ppm / CCCCN(CCCC)SN(C)C(=O)ON=CC(C)(C)SC : value?
100

Now give it for CSC(C)(C)C=NOC(=O)N(C)SN(C)Cc1ccccc1 too.
99.5

Now give it for CSC(C)(C)C=NOC(=O)N(C)SN(C)C too.
100

Now give it for CSC(C)(C)C=NOC(=O)N(C)SN1CCOCC1 too.
97

* * *

Would you mind telling me the reported mortality at 39 ppm of each entry?
Test system: Two-spotted spider mite
Test: Initial contact activity, leaf dip, two-spotted spider mite
Assay type: in vivo, Tetranychus urticae Koch
Conditions: Tetranychus urticae, foliar, 48 h, initial, SM, 39 PPM, 48 hours; read-out: Percent Kill
Give your result in % as a bare value.

Fill in: mortality at 39 ppm of CCCCN(CCCC)SN(C)C(=O)ON=CC(C)(C)SC is ___
89

Now give it for CSC(C)(C)C=NOC(=O)N(C)SN1CCOCC1 too.
100

Now give it for CSC(C)(C)C=NOC(=O)N(C)SN(C)Cc1ccccc1 too.
98

Now give it for CSC(C)(C)C=NOC(=O)N(C)SN(C)C too.
100

* * *

Test: Toxicity to rats, acute oral median lethal dose (LD50), Method A
Assay type: in vivo, young female albino rats, derived from Sprague-Dawley stock
Details: in vivo, rat, corn oil, 14 days observation
Would you mind telling me the reported LD50 at 336 h of each entry?
State the value with its unit after it.

Fill in: LD50 at 336 h of CSC(C)(C)C=NOC(=O)N(C)SN1CCOCC1 is ___
1.2 mg/kg

Now give it for CSC(C)(C)C=NOC(=O)N(C)SN(C)Cc1ccccc1 too.
9.4 mg/kg

Now give it for CCCCN(CCCC)SN(C)C(=O)ON=CC(C)(C)SC too.
12.5 mg/kg

Now give it for CNC(=O)ON=CC(C)(C)SC too.
0.5 mg/kg

* * *

Test system: Plum curculio
Assay: Residual (7-day) contact activity, plum curculio
Format: in vivo, Conotrachelus nenuphar [Herbst]
Settings: Conotrachelus nenuphar, 168 h; residual 7-day, PC, 1250 PPM; read-out: Percent Kill
Would you mind telling me the reported mortality at 1250 ppm of each entry?
Give your result in % as a bare value.

Fill in: mortality at 1250 ppm of CCCCN(CCCC)SN(C)C(=O)ON=CC(C)(C)SC [Example III] is ___
5

Now give it for CSC(C)(C)C=NOC(=O)N(C)SN(C)Cc1ccccc1 [Example I] too.
20

Now give it for CSC(C)(C)C=NOC(=O)N(C)SN(C)C [Example IV] too.
0

Now give it for CSC(C)(C)C=NOC(=O)N(C)SN1CCOCC1 [Example II] too.
37

* * *

System: Southern armyworm
Assay: Initial contact activity, leaf dip, southern armyworm
Assay type: in vivo, Spodoptera eridania [Cram.]
Settings: Spodoptera eridania, foliar, 48 h, initial, AW, 312 PPM, 48 hours; read-out: Percent Kill
Would you mind telling me the reported mortality at 312 ppm of each entry?
Give your result in % as a bare value.

Fill in: mortality at 312 ppm of CSC(C)(C)C=NOC(=O)N(C)SN1CCOCC1 [Example II] is ___
0

Now give it for CSC(C)(C)C=NOC(=O)N(C)SN(C)Cc1ccccc1 [Example I] too.
24

Now give it for CSC(C)(C)C=NOC(=O)N(C)SN(C)C [Example IV] too.
0

Now give it for CCCCN(CCCC)SN(C)C(=O)ON=CC(C)(C)SC [Example III] too.
0
